experimental-system: human N-type Ca channel (Homo sapiens, UniProt Q00975)
Sequence (Q00975 whole entry): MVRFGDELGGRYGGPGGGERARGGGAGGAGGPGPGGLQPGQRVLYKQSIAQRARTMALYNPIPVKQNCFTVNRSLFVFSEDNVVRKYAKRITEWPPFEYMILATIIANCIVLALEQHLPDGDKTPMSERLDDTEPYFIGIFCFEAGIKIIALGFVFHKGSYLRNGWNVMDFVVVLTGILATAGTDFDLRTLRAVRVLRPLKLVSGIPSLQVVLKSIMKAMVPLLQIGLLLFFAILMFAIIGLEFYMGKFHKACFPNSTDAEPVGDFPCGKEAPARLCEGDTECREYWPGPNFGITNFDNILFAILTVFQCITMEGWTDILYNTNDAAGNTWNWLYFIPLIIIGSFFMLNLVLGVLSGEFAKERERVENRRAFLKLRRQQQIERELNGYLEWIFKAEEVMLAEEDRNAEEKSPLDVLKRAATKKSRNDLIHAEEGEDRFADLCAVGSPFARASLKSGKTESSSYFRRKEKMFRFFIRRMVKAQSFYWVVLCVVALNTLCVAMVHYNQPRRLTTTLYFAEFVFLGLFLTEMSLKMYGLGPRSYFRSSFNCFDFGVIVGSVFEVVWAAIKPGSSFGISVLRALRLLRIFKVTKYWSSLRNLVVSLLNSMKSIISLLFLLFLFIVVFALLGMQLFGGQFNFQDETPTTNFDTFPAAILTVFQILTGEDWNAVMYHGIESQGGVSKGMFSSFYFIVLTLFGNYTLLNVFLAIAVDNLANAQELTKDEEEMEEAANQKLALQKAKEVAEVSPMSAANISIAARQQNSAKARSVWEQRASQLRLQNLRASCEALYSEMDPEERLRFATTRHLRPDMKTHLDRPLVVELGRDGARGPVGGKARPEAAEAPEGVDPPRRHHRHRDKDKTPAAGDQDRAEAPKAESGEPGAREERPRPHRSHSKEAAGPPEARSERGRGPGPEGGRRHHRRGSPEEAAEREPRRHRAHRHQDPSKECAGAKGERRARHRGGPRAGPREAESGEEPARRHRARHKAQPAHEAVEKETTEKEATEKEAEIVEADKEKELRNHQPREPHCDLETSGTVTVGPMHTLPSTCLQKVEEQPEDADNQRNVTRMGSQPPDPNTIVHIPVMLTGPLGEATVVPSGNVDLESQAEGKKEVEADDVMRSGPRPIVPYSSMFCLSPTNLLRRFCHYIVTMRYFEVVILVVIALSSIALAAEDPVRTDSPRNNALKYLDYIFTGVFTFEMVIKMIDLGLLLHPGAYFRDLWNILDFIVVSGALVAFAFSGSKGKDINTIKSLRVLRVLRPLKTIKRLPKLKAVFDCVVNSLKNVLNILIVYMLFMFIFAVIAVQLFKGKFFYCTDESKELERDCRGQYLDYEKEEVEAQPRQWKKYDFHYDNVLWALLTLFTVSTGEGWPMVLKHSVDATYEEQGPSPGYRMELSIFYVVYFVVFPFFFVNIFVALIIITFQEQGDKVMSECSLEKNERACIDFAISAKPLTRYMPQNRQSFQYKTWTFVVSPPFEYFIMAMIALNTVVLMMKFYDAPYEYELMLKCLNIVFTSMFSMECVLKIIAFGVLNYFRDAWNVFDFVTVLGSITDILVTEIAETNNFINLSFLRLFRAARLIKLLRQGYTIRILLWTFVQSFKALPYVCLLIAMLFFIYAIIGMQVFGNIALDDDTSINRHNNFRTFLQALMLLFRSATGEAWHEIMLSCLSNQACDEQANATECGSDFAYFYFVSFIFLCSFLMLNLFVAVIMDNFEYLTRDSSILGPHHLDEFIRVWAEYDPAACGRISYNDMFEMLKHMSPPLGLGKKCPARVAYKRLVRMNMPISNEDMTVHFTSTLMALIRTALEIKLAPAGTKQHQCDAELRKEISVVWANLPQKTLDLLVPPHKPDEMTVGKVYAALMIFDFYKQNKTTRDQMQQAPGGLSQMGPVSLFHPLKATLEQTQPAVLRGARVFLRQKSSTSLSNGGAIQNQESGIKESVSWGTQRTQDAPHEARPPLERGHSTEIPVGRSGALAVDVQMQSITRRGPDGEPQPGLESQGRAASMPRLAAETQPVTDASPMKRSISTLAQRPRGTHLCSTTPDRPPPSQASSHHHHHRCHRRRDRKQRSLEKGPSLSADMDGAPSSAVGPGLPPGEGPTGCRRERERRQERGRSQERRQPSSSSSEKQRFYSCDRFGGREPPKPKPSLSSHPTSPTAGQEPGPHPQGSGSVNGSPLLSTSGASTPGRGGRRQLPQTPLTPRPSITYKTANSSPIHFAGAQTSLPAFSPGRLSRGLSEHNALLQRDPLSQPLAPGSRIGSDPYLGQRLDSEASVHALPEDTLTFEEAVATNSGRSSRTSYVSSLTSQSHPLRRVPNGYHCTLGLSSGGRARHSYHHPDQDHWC
Sequence (P54284 whole entry partner): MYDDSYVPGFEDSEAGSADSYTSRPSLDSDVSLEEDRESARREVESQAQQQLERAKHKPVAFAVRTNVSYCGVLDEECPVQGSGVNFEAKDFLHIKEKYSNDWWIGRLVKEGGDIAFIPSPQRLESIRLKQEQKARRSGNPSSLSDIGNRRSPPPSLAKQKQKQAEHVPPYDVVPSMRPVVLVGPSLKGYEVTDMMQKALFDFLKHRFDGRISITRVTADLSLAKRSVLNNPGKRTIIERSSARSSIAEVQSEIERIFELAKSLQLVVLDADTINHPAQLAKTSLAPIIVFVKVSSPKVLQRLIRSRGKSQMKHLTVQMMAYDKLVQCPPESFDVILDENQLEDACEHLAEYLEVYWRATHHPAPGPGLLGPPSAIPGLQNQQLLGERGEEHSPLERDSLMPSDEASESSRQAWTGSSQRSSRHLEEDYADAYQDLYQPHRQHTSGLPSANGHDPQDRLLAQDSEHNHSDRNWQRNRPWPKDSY
Sequence (P54289 25-956 partner limits assumed): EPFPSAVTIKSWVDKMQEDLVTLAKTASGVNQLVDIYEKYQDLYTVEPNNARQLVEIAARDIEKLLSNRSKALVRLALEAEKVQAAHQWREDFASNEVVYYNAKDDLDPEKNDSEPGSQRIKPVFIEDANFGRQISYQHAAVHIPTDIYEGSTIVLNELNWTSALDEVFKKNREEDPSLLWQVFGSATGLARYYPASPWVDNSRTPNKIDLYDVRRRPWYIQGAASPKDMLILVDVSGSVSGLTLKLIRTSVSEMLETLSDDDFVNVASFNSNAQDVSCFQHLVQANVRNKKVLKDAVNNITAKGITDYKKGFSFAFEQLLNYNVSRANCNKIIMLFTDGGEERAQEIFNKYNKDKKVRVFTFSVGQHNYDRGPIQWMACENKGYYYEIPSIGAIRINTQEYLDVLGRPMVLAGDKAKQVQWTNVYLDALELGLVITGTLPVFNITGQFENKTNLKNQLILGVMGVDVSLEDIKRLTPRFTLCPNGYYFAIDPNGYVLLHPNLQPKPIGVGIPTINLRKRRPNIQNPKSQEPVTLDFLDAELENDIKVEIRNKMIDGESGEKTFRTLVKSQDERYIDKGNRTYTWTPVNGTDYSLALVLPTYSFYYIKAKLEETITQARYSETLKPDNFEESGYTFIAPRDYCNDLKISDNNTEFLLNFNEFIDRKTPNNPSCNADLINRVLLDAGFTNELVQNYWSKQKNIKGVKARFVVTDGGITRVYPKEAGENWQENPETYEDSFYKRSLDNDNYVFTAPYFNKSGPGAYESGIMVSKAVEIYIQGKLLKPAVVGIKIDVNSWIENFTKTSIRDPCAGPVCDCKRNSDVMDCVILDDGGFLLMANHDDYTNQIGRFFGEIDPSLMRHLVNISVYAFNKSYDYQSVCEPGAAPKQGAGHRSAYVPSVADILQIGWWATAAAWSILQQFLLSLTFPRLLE
Sequence (P54289 957-1103 partner limits assumed): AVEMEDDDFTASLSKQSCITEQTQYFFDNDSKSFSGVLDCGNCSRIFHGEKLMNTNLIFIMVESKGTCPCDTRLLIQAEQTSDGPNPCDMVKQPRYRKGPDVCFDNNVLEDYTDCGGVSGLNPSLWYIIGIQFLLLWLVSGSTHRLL
protocol-summary: Measurement of electrophysiological response (QPatch)
pIC50: −log10 of the molar value.
attribute-measured: pIC50

# smiles-representation, reported
records = [
    ("COc1ccccc1-c1nc(C2CC(C)(C)OC(C)(C)C2)cn1S(=O)(=O)CC(C)C", "≤ 5.00"),
]

* * *

experimental-system: human N-type Ca channel (Homo sapiens, UniProt Q00975)
protocol-summary: Measurement of electrophysiological response (QPatch)
cond: Pulse = 1; concentration range 0.01-1 μM

# smiles-representation, units-symbol, Qpatch Pulse = 1 (percent inhibition)
rows = [
    ("COc1ncccc1-c1nc(C2CC(C)(C)OC(C)(C)C2)cn1-c1ccc(Cl)c(C#N)c1", "%", 39),
    ("COc1cc(-n2cc(C3CC(C)(C)OC(C)(C)C3)nc2-c2cccnc2OC)ccc1F", "%", 29),
    ("COc1ccc(-n2cc(C3CC(C)(C)OC(C)(C)C3)nc2-c2cccnc2OC)cc1F", "%", 21),
    ("COc1ncccc1-c1nc(C2CC(C)(C)OC(C)(C)C2)cn1Cc1cccc(Cl)c1", "%", 46),
    ("COc1ncncc1-c1nc(C2CC(C)(C)OC(C)(C)C2)cn1-c1ccc(C#N)cc1", "%", 28),
    ("COc1ncccc1-c1nc(C2CC(C)(C)OC(C)(C)C2)cn1-c1ccc(C#N)c(Cl)c1", "%", 58),
    ("COc1ccc(-n2cc(C3CC(C)(C)OC(C)(C)C3)nc2-c2cccnc2OC)cc1C#N", "%", 45),
    ("CC1(C)CC(c2cn(-c3ccc(Cl)cc3)c(CC3CC3)n2)CC(C)(C)O1", "%", 48),
    ("COc1cc(-n2cc(C3CC(C)(C)OC(C)(C)C3)nc2-c2ccccc2OC)ccc1C#N", "%", 38),
]

* * *

experimental-system: human N-type Ca channel (Homo sapiens)
protocol-summary: Calcium influx assay (FDSS)
Type: cell-based
Parameters: host or cells: HEK 293
cond: HEK 293 cells, depolarized with 100 mM KCl
pIC50: −log10 of the molar value.
attribute-measured: pIC50

# molecule, attribute-measured, value-qualifier, reported
data = [
    ("COc1ccccc1-c1nc(C2CC(C)(C)OC(C)(C)C2)cn1Cc1cncnc1 [Cpd 100]", "pIC50", "≤", 5.00),
    ("COc1cc(-n2cc(C3CC(C)(C)OC(C)(C)C3)nc2-c2cccnc2OC)ccc1C#N [Cpd 77]", "pIC50", "≤", 5.00),
    ("COc1ccccc1-c1nc(C2=CC(C)(C)OC(C)(C)C2)cn1-c1ccc(C#N)c(F)c1 [Cpd 126]", "pIC50", "=", 6.63),
    ("COc1ccccc1-c1nc(C2(O)CC(C)(C)OC(C)(C)C2)cn1-c1ccc(F)c(Br)c1 [Cpd 106]", "pIC50", "=", 6.83),
    ("COc1ccccc1-c1nc(C2CC(C)(C)OC(C)(C)C2)cn1-c1ccc(C#N)c(C(F)(F)F)c1 [Cpd 121]", "pIC50", "=", 6.63),
    ("COc1ccccc1-c1nc(C2CC(C)(C)OC(C)(C)C2)cn1S(=O)(=O)C1CC1 [Cpd 95]", "pIC50", "≤", 5.00),
    ("COc1ccccc1-c1nc(C2CC(C)(C)OC(C)(C)C2)cn1-c1ccc(F)c(C#N)c1 [Cpd 74]", "pIC50", "=", 6.31),
    ("CC1(C)CC(c2cn(-c3ccc(C#N)cc3)c(C3CC3)n2)CC(C)(C)O1 [Cpd 57]", "pIC50", "≤", 5.00),
    ("COc1ncccc1-c1nc(C2(O)CC(C)(C)OC(C)(C)C2)cn1-c1ccc(F)c(C#N)c1 [Cpd 116]", "pIC50", "=", 5.86),
]
